Item-by-item account of growth
tested on: SF-295 CNS; test: NCI-60 one-dose screen, 48 h (100 = growth as untreated, 0 = no growth, -100 = all killed); settings: 10 µM unless noted
Compounds without any hit were thinned out: in the full panel of roughly 83,000, 20% have a hit.
The answer is to be given in %; state only the numeric part.

Recorded growth, per entry:
[[record]]
molecule = "CC1(C)CC[C@]2(C(=O)N3CCOCC3)CC[C@]3(C)C(=CC[C@@H]4[C@@]5(C)C/C(=C/c6ccccn6)C(=O)C(C)(C)[C@@H]5CC[C@]43C)[C@@H]2C1"
measured_metric = "growth"
quantitative_readout = 75.1

[[record]]
molecule = "COc1cc2nc(Cl)nc(Nc3cccc(C4=Nc5c(N)nc(N)nc5NC(c5ccc(Cl)cc5)C4)c3)c2cc1OC (stereo not drawn)"
measured_metric = "growth"
quantitative_readout = -23.9

[[record]]
molecule = "CCCn1cnc2c(c1=N)C(c1ccc(Cl)cc1)c1sc3c(CC)cccc3c1O2 (stereo not drawn)"
measured_metric = "growth"
quantitative_readout = -12.8

[[record]]
molecule = "C[C@H](CCC(=O)NCc1ccc(C(=O)Nc2ccccc2N)cc1)[C@H]1CC[C@H]2[C@@H]3[C@@H](O)C[C@@H]4C[C@H](O)CC[C@]4(C)[C@H]3CC[C@]12C"
measured_metric = "growth"
quantitative_readout = 69.1

[[record]]
molecule = "COc1ccc2[nH]cc(-c3csc4nc(-c5ccccc5)cn34)c2c1"
measured_metric = "growth"
quantitative_readout = -2.19


Form field growth for item COc1ccc(C2c3sc4c(C)cccc4c3Oc3nc(CC(=O)Nc4ccccc4)[nH]c(=O)c32)cc1 (stereo not drawn) on SF-295 CNS: 83.1

Form field growth for item NC(N)=Nc1ccc(Nc2cccc(Oc3ccc(Cl)c(C(F)(F)F)c3)c2)cn1 on SF-295 CNS: 23.8

Form field growth for item O=C(NCCN1CCCC1)c1ccc(-c2nc3ccc4[nH]ncc4c3c3c2CCCC3)cc1 on SF-295 CNS: 3.28
